- systemTested: SpHof1-2
- assayMethodText: SPOT peptide array binding signal intensity (averaged, normalized) (arbitrary units (background-subtracted, floor 0; scale differs between SH3 domains)); higher = stronger binding of the SH3 domain to the peptide
Classify as follows. Reported SPOT peptide array binding signal intensity greater than or equal to 30: true (1). Reported SPOT peptide array binding signal intensity below: false (0).

> print(dat)
            binder  answerlabel
1  RVRKTHVPASKRPSG    false (0)
2  KNRKNLPTIPIRLSG     true (1)
3  FVLRYYILIPHEQWD     true (1)
4  TSIEIPKRSPLRFTS    false (0)
5  HKVLRPFLLRRLKKD    false (0)
6  VQPTAAPATPPRHIS    false (0)
